Target: HDAC2 (Homo sapiens, UniProt Q92769)
Sequence (Q92769 whole entry): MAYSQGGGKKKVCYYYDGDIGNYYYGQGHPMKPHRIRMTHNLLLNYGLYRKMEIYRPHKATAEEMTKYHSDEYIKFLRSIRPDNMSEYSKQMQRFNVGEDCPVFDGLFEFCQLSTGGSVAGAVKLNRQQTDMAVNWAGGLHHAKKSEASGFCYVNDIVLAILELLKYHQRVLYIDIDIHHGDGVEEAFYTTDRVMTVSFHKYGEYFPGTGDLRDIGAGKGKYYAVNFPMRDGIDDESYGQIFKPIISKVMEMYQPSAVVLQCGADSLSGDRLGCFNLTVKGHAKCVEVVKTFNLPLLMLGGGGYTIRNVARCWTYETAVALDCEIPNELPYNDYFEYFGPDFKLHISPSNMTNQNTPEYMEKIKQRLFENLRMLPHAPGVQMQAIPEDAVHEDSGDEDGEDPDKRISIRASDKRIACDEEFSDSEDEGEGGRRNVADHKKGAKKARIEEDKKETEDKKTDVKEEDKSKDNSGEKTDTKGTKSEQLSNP
pKi: −log10 of the molar value. Non-standard residues stand in square brackets, D forms with d. Residues, ends and D or L forms follow the SMILES beside them. *: point of attachment. Asu = N[C@@H](CCCCCC(=O)O)C(=O)O; NHOH = ON*
Readout label: pKi

>>> value_observed("CC(=O)NCC(=O)NCC(=O)N[C@@H](CCCCCC(=O)NO)C(=O)N[C@@H](C)C(=O)N[C@@H](CCCNC(=N)N)C(=O)N[C@@H](C)C(=O)N[C@@H](CCCCN)C(=O)N[C@@H](C)C(=O)N[C@@H](CCCCN)C(=O)N[C@H](C(=O)N[C@@H](CCCNC(=N)N)C(=O)N[C@@H](CO)C(=O)N[C@@H](CO)C(=O)N[C@@H](CCCNC(=N)N)C(=O)N[C@@H](C)C(=O)NCC(=O)N[C@@H](Cc1c[nH]c2ccccc12)C(N)=O)[C@@H](C)O [9a] (Ac-GG[Asu](NHOH)ARAKAKTRSSRAGW-NH2)")
7.32

From: paper PMC7782793
